Values from patent US20100273722A1

Biological target: the molecule itself
Assay: sedimentation equilibrium AUC, self-association, monomer-n-mer fit, 25 C
No end group written: not given here.
measurement.name: lnKA (n = 4)
Answers are plain numbers.

GPSQPEAPGDDAPVEDLIRFYDNLQQYLNVVTRHRY-NH2 (entries are for its self-association (tetramer); also called aPP^Y7AAT6E) [aPP^Y7AT6E]
29.3
GPSQPTYPGDDAPVEDLIRAYDNLQQYLNVVTRHRY-NH2 (Synthetic aPP variant; entries are for its self-association (tetramer)) [aPP^F20A]
23.3
GPSQPTAPGDDAPVEDLIRFYDNLQQYLNVVTRHRY-NH2 (Synthetic aPP variant; entries are for its self-association (tetramer)) [aPP^Y7A]
26.3
GPSQPTAPGDDAPVEDLIRFYDNLRQYLNVVTRHRY-NH2 (Synthetic aPP variant; entries are for its self-association (tetramer)) [aPP^Y7AQ25R]
29.3

Now examine the next entry.
So for GPSQPTAPGDDAVPEDLIRFYDNLQQYLNVVTRHRY-NH2 (Synthetic aPP variant; entries are for its self-association (tetramer); also called aPP^Y7AP13W14P) [aPP^Y7AP13VV14P] , the logged lnKA (n = 4) turned out to be 27.9
